This collection of values is drawn from ChEMBL document CHEMBL1141221.

Readings of pIC50 for the listed compounds
Target: Human immunodeficiency virus type 1 integrase (Human immunodeficiency virus 1)
Sequence (Q7ZJM1 whole entry): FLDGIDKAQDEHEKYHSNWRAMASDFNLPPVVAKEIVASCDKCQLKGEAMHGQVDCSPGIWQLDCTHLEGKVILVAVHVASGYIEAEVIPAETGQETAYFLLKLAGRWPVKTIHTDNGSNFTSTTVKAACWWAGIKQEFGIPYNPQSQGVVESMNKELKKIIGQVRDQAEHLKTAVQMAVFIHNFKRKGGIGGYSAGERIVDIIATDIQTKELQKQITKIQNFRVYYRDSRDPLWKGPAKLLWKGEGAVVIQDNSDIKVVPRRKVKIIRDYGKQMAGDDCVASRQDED
Test Summary: Inhibition of strand transfer catalytic activity HIV1 integrase
pIC50: −log10 of the molar value.

| Compound | pIC50 |
| --- | --- |
| CC(=O)c1cc(C(=O)CC(=O)Nc2cccc([N+](=O)[O-])c2)sc1Nc1ccccc1 | 4.54 |
| COc1ccc(CCNC(=O)CC(=O)N/N=C/c2ccco2)cc1OC | 4.05 |
| Cc1ccc(C(=O)C2=C(O)C(=O)N(CCCc3c[nH]cn3)C2c2ccc(Cl)cc2)cc1 (stereo not given) | 4.17 |
| Oc1ccccc1/C=N/CC(O)C/N=C/c1ccccc1O | 4.21 |
| O=C(CSc1nc(CSc2ccc(Cl)cc2)cc(=O)[nH]1)Nc1ccc(Cl)cc1Cl | 4.62 |
| O=C(c1ccccc1)c1cc(Br)ccc1NC(=O)c1nc[nH]c1C(=O)O | 4.77 |
| O=C(N/N=C/c1cc(Br)ccc1O)/C(=C/C=C/c1ccccc1)NC(=O)c1ccccc1 | 4.64 |
| O=C(/C=C(\O)c1ccc(Cl)cc1)C(=O)/N=N/c1c(O)[nH]c2ccc(Br)cc12 | 4.55 |
| O=C(CSc1nc2ccccc2n1Cc1ccccc1)N/N=C/c1cc(Br)ccc1O | 4.29 |
| COc1ccc(N(CC(=O)N/N=C/c2c(O)ccc3ccccc23)S(C)(=O)=O)cc1Cl | 4.23 |
